method-notes: chemical genetic growth profiling, strain panel (AID 1159580);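 further: tested at 20 µM; growth read once vehicle control cultures reached saturation at 30 °C; 1 = growth at the plate median or of vehicle wells; lower values mean less growth of the strain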
condition-info: S. cerevisiae deletion strains, growth OD, locus YCL061C, strain MRC1, hits give low values
Among all 5,500 compounds or so, about 2,000 (36%) were called active. Inconclusive results (about 18%) are left out. The list shows a part of the results.
recorded-endpoint: normalized growth

In plain terms, CC(=O)O[C@@H]1CC2C(C)(C)[C@H](O)C=C[C@]2(C)C2CC[C@@]3(C)[C@H](c4ccoc4)OC(=O)C4OC43[C@@]21C (some centres undefined) has a documented normalized growth of 1.01 (inactive)

Lab note: measured normalized growth of CC1(C)C(=O)[C@@H]2O[C@@H]2[C@@]2(C)C1C[C@@H](O)[C@]1(C)C2CC[C@@]2(C)[C@H](c3ccoc3)OC(=O)C3OC321 (some centres undefined) was 1.01 (inactive)

Measured normalized growth, COc1ccc(C(=O)c2sc(Nc3ccccc3)nc2-c2ccccc2)cc1 : 1 (inactive)

// Clc1ccc(COC(Cn2ccnc2)c2ccc(Cl)cc2Cl)c(Cl)c1 (centres undefined) : normalized growth value = 0.065 (active)

# normalized growth (compound: Clc1ccc(COC(Cn2ccnc2)c2ccc(Cl)cc2Cl)cc1 (centres undefined) ) is 0.0624 (active)

The compound CC(O)(P(=O)(O)O)P(=O)(O)O showed normalized growth equal to 1 (inactive)

Per the record, O=C(O)C1CCCNC1 (centres undefined) has normalized growth of 1.02 (inactive)

In plain terms, CC(=O)O[C@@H]1CC2C(C)(C)[C@@H](O)CC[C@]2(C)C2CC[C@@]3(C)[C@H](c4ccoc4)OC(=O)[C@H]4O[C@]43[C@@]21C (some centres undefined) has a documented normalized growth of 0.994 (inactive)

normalized growth for Cc1nn(-c2ccccc2)nc1-c1nnc(-c2ccc(Cl)cc2)o1 is 0.986 (inactive)

----------
method-notes: chemical genetic growth profiling, strain panel (AID 1159580);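 further: tested at 20 µM; growth read once vehicle control cultures reached saturation at 30 °C; 1 = growth at the plate median or of vehicle wells; lower values mean less growth of the strain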
condition-info: S. cerevisiae deletion strains, growth OD, locus YDL192W, strain arf1
In all, about 5,500 compounds went through this assay and about 2,000 (36%) were called active. Inconclusive results (about 18%) are left out. No stated cut-off is given here; in the data, active means normalized growth mostly below about 0.91 (no sharp cut-off); inconclusive means no clear call, values can overlap the other calls; inactive means mostly above about 0.92. The list shows a part of the results.
Thanks in advance; please answer with one of these: yes (1) (active), no (0) (inactive)

Here's what some known entries look like.
molecule	class-assignment
C1N2CN3CN1CN(C2)C3	no (0)
COc1ccc2c(=O)c(OC)c(-c3ccccc3)oc2c1	yes (1)
CCCCCCCCCCCC(=O)OCC(COP(=O)(O)OCC(O)COP(=O)(O)OCC(COC(=O)CCCCCCCCCCC)OC(=O)CCCCCCCCCCC)OC(=O)CCCCCCCCCCC (stereo not drawn)	no (0)

Prompt: Field: outcome | Entry: CN(C)C(=O)Oc1ccc[n+](C)c1
Response: no (0)

----------
method-notes: chemical genetic growth profiling, strain panel (AID 1159580);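 further: tested at 20 µM; growth read once vehicle control cultures reached saturation at 30 °C; 1 = growth at the plate median or of vehicle wells; lower values mean less growth of the strain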
condition-info: S. cerevisiae deletion strains, growth OD, locus YNR030W, strain Alg12, hits give low values
Out of some 5,500 compounds screened, about 2,000 (36%) were called active. Not shown: some 18% with an inconclusive outcome. The list shows a part of the results.
recorded-endpoint: normalized growth
Answer with the value's number alone.

Solved entries:
compound	recorded-endpoint	reported-measurement
CC12CCC3C(CC[C@H]4CC5(CCC34C)OCCO5)C1CCC2O (stereo not given in full)	normalized growth	0.963
FC(F)(F)Oc1ccccc1-c1nnc(-c2ccc(Cl)cc2)o1	normalized growth	0.837

Query compound follows.
Reported normalized growth of COC(=O)c1cscc1Sc1ccc(Cl)cc1 : 0.848
